assayed-system: 18F-W372 binding sites, amyloid plaque and fibril in human brain slices (Homo sapiens, UniProt P05067)
Sequence (P05067 whole entry): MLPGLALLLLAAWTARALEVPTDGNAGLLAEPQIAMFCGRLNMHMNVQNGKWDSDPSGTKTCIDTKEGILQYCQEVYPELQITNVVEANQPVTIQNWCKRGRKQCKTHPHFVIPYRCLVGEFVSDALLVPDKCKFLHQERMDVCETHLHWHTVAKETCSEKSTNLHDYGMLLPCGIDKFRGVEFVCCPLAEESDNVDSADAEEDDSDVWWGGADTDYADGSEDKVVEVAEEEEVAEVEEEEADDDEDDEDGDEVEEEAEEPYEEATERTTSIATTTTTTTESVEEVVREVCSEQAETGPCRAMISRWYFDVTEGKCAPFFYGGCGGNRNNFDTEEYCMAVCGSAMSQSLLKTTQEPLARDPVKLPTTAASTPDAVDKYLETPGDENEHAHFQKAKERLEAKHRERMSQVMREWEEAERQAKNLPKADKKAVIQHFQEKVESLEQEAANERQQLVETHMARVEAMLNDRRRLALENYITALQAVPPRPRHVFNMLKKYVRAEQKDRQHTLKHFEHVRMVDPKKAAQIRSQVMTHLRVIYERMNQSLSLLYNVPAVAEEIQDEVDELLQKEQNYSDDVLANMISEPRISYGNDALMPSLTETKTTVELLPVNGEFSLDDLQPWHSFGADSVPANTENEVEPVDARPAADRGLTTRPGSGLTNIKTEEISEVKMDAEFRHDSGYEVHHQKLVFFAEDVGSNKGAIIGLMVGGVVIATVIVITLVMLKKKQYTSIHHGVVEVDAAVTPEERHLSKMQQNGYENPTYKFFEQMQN
method-summary: Human AD brain slice competition against 18F-W372 (IC50)
recorded-conditions: tracer 18F-W372, blocker 0.01 to 10 uM
property-label: IC50 (nM)
Quick reminder: number only, in nM, skip the unit.

input: Please look up its IC50: `COc1ccc2c(c1)sc1nc(-c3ccc(F)nc3)cn12`
output: 150

input: Give its IC50 value. Item: `COc1ccc2c(n1)oc1nc(-c3ccc(F)nc3)cn12`
output: 170

input: Give the measured IC50 of `COc1ccc2c(n1)oc1nc(-c3ccc(F)cc3)cn12` .
output: 71

input: Quick one: IC50 of `COc1ccc2c(n1)sc1nc(-c3ccc(F)nc3)cn12` ?
output: 37

input: Give its IC50 value. Item: `COc1ccc2c(n1)sc1nc(-c3cnc(F)cn3)cn12`
output: 210
